The reported measurements were obtained from patent US20090018134A1.

Target: mTOR (Homo sapiens, UniProt P42345)
Construct: FLAG; made in house
Sequence (P42345 1362-2549): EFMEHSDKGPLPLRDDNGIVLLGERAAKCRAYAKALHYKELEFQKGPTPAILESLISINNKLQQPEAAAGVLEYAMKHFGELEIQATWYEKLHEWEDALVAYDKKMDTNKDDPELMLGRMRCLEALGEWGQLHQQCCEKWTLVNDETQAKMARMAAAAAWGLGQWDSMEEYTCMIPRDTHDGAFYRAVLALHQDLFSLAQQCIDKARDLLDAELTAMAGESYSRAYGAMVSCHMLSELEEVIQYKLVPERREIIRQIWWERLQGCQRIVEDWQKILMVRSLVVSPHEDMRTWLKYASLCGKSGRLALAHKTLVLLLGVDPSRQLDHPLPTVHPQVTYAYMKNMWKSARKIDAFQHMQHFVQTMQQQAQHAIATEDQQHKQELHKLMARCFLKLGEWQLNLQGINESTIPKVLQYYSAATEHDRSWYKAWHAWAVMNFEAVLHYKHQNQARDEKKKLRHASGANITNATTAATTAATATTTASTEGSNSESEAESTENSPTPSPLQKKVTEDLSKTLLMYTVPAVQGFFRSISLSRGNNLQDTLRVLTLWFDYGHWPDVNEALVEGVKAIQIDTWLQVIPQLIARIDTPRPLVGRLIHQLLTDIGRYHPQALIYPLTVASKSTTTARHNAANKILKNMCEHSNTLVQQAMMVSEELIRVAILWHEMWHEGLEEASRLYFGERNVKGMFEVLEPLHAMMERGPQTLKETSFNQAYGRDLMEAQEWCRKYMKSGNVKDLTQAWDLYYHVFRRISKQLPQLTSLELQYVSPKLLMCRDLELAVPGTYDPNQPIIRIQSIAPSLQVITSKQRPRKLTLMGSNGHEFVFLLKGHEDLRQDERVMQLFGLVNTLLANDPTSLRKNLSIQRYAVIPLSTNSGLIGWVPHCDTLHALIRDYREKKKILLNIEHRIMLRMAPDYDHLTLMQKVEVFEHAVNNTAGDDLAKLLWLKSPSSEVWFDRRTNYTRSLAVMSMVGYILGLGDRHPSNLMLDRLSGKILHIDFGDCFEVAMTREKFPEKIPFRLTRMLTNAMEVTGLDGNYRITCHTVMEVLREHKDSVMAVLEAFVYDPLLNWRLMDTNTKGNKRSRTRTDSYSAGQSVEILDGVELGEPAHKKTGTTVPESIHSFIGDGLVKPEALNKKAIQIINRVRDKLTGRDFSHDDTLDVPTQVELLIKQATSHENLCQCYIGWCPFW
Test: In Vitro mTOR Kinase Assay (Echo), Test (a)(ii)
Format: biochemical
Details: table of enzyme assay Test (a)(ii); read-out: Test (a)(ii) IC50
pIC50: −log10 of the molar value.
Quantity Name: pIC50

[
  {
    "Compound": "C[C@H]1COCCN1c1cc(C2(S(=O)(=O)C3CCOC3)CC2)nc(-c2ccc(NC(=O)Nc3cnn(C)c3)cc2)n1 (stereo partly shown) [Example 94k]",
    "Result Number": 7.97
  }
]

(1) Cc1nn(C(F)F)c(C)c1S(=O)(=O)C1(c2cc(N3CCOC[C@@H]3C)nc(-c3ccc(NC(=O)NCCF)cc3)n2)CC1 [Example 75e]
(2) Cc1csc(S(=O)(=O)C2(c3cc(N4CCOC[C@@H]4C)nc(-c4ccc(NC(=O)NCCCO)cc4)n3)CCCC2)n1 [Example 36dn]
(3) C[C@H]1COCCN1c1cc(C2(S(=O)(=O)C3CC3)CCC2)nc(-c2ccc(NC(=O)NCCO)cc2)n1 [Example 36f]
## Task Order field: pIC50 | Direction: descending (largest first) API: response body holds the labels in the requested order.
## Result 3, 2, 1
